Attribution: paper PMC8067766

Experiment: Peptide stability in human plasma (TCA assay)
Format: in vitro ADME
Details: human plasma (EDTA), 37 °C, 300 rpm, TCA 3% precipitation, RP-HPLC UV 223 nm, peak area relative to 0 min, at least triplicates, read-out: peptide loss in human plasma relative to the initial concentration
Where a SMILES comes first, the peptide text is derived from it.
Reported metabolised at 24 h, 1 mg/mL values follow for various compounds

Compound: CC[C@H](C)[C@H](NC(=O)CNC(=O)[C@H](C)NC(=O)[C@H](CCC(N)=O)NC(=O)CNC(=O)CNC(=O)CNC(=O)[C@@H](NC(=O)[C@@H]1CCCN1C(=O)[C@H](C)NC(=O)[C@H](C)NC(=O)CNC(=O)CNC(=O)CNC(=O)[C@H](CCCNC(=N)N)NC(=O)[C@H](Cc1ccc(O)cc1)NC(=O)[C@@H](NC(=O)[C@H](CCCCN)NC(=O)[C@H](CC(=O)O)NC(=O)[C@H](CCCNC(=N)N)NC(C)=O)C(C)C)C(C)C)C(=O)N[C@H](C(=O)N[C@H](C(N)=O)C(C)C)C(C)C [FC-IM] (Ac-RDKVYRGGGAAPVGGGQAGIVV-NH2)
metabolised at 24 h, 1 mg/mL [%]: 7
--
Compound: CC[C@H](C)[C@H](NC(=O)CNC(=O)[C@H](C)NC(=O)[C@H](CCC(N)=O)NC(=O)CNC(=O)CNC(=O)CNC(=O)[C@@H](NC(=O)[C@@H]1CCCN1C(=O)[C@H](C)NC(=O)[C@H](C)NC(=O)CNC(=O)CNC(=O)CNC(=O)[C@H](CCCCN)NC(=O)[C@H](Cc1c[nH]cn1)NC(=O)CNC(C)=O)C(C)C)C(=O)N[C@H](C(=O)N[C@H](C(N)=O)C(C)C)C(C)C [FC-GHK] (Ac-GHKGGGAAPVGGGQAGIVV-NH2)
metabolised at 24 h, 1 mg/mL [%]: 20
--
Compound: CC[C@H](C)[C@H](NC(=O)CNC(=O)[C@H](C)NC(=O)[C@H](CCC(N)=O)NC(=O)CNC(=O)CNC(=O)CNC(=O)[C@@H](NC(=O)[C@@H]1CCCN1C(=O)[C@H](C)NC(=O)[C@H](C)NC(=O)CNC(=O)CNC(=O)CNC(=O)[C@H](CCCCN)NC(=O)[C@H](Cc1c[nH]cn1)NC(=O)CNC(=O)[C@H](CCCCN)NC(C)=O)C(C)C)C(=O)N[C@H](C(=O)N[C@H](C(N)=O)C(C)C)C(C)C [FC-KGHK] (Ac-KGHKGGGAAPVGGGQAGIVV-NH2)
metabolised at 24 h, 1 mg/mL [%]: 20

---

Experiment: Peptide stability in human plasma (TCA assay)
Format: in vitro ADME
Conditions: human plasma (EDTA), 37 °C, 300 rpm, TCA 3% precipitation, RP-HPLC UV 223 nm, at least triplicates, rapid precipitation of peptide noted, read-out: peptide remained in solution in human plasma
Where a SMILES comes first, the peptide text is derived from it.
Quantity measured: remaining at 24 h, 1 mg/mL (%)

Compound: CC[C@H](C)[C@H](NC(=O)CNC(=O)[C@H](C)NC(=O)[C@@H](N)CCC(N)=O)C(=O)N[C@H](C(=O)N[C@H](C(N)=O)C(C)C)C(C)C [FC] (H-QAGIVV-NH2)
Quantity measured: remaining at 24 h, 1 mg/mL
Value reported: 11
